Reference source for all entries: patent US20230049752A1

- test.system: human Claudin-6 (CLDN6) (human) (UniProt P56747)
- method.notes: FACS, limiting dilution, OV90 cells
measured.parameter: FACS signal at 0.32 nM

Prompt: What measured FACS signal at 0.32 nM goes with AB S7 (antibody, V domains shown) VH: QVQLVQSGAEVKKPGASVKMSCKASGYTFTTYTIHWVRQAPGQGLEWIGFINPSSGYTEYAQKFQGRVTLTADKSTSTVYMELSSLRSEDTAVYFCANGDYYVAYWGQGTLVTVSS VL: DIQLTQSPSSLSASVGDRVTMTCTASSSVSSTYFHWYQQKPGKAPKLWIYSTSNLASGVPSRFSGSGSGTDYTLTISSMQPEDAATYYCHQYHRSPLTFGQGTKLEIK ?
Response: 586

Prompt: What measured FACS signal at 0.32 nM goes with AB S2 (antibody, V domains shown) VH: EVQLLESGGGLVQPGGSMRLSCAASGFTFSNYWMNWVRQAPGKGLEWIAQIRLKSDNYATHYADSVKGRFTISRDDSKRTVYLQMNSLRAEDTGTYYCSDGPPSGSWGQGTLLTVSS VL: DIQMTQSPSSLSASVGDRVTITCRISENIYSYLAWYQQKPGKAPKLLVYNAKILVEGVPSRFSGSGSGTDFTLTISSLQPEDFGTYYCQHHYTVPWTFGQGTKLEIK ?
Response: 537

Prompt: What measured FACS signal at 0.32 nM goes with AB S8 (antibody, V domains shown) VH: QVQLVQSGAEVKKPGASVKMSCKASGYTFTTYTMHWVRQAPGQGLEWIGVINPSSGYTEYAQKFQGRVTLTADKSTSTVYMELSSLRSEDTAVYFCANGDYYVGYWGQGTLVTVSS VL: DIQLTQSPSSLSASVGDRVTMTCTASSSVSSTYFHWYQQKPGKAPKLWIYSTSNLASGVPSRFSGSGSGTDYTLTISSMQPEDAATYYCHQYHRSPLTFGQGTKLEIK ?
Response: 834
